Reference source: ChEMBL document CHEMBL2203238

molecular target: Mitogen-activated protein kinase 9 (Homo sapiens, UniProt P45984); test: Inhibition of recombinant JNK2A2 after 1 hr by scintillation counter analysis in presence of gamma-[33P]ATP
Sequence (P45984 whole entry): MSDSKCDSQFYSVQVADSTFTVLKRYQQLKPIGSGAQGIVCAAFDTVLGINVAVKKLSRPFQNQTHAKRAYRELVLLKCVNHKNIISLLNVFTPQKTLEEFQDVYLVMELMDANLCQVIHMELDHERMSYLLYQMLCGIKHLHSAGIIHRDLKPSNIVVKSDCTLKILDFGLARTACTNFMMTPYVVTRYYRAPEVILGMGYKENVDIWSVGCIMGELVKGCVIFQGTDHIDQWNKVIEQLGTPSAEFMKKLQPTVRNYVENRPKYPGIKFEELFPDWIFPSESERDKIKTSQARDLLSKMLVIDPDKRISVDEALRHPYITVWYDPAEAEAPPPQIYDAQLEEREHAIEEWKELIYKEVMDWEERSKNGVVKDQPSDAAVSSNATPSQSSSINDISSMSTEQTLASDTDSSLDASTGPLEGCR
READOUT LABEL: pKi
The meaning of pKi here: minus log10 of the concentration in molar units.

INPUT: What pKi value was documented for this compound, CC(C)(C)Nc1c(Nc2ccnc(Nc3ccc(-c4ccncc4)cc3)n2)c(=O)c1=O ?
OUTPUT: 6.58

----------
molecular target: MAP kinase-activated protein kinase 3 (Homo sapiens); experiment: Inhibition of recombinant MK3 after 1 hr by scintillation counter analysis in presence of gamma-[33P]ATP
READOUT LABEL: Ki

INPUT: Any idea what Ki came out for CC(C)(C)Nc1c(Nc2ccnc(Nc3ccc(-c4ccncc4)cc3)n2)c(=O)c1=O on MAP kinase-activated protein kinase 3 (Homo sapiens)?
OUTPUT: > 9.2 µM

----------
experiment: Volume of distribution in mouse; assay type: ADME, organism-based; conditions: in vivo
READOUT LABEL: Vd
Answer format: number, then unit.

INPUT: Which measured Vd value corresponds to CC(C)(C)Nc1c(Nc2ccnc(Nc3ccc(-c4ccncc4)cc3)n2)c(=O)c1=O ?
OUTPUT: 3.7 L/kg

----------
target: MAP/microtubule affinity-regulating kinase 3 (Homo sapiens); assay: Inhibition of recombinant CTAK1 after 1 hr by scintillation counter analysis in presence of gamma-[33P]ATP
READOUT LABEL: Ki (µM)
Provide the reading as a plain figure in µM.

INPUT: GET /values?readout=Ki&item= CC(C)(C)Nc1c(Nc2ccnc(Nc3ccc(-c4ccncc4)cc3)n2)c(=O)c1=O
OUTPUT: 4.83

----------
experiment: Cmax in mouse at 50 mg/kg, po measured at 8 hrs; assay type: ADME, organism-based; design: dose 50 mg/kg, route oral; settings: in vivo
READOUT LABEL: Cmax (µM)
Please state the figure in µM; there is no need to write the unit.

INPUT: Requested read-out: Cmax. Entry: CC(C)(C)Nc1c(Nc2ccnc(Nc3ccc(-c4ccncc4)cc3)n2)c(=O)c1=O
OUTPUT: 3.3

----------
biological target: Receptor tyrosine-protein kinase erbB-2 (Homo sapiens); test: Inhibition of recombinant ERBB2 after 1 hr by scintillation counter analysis in presence of gamma-[33P]ATP
Sequence (P04626 whole entry): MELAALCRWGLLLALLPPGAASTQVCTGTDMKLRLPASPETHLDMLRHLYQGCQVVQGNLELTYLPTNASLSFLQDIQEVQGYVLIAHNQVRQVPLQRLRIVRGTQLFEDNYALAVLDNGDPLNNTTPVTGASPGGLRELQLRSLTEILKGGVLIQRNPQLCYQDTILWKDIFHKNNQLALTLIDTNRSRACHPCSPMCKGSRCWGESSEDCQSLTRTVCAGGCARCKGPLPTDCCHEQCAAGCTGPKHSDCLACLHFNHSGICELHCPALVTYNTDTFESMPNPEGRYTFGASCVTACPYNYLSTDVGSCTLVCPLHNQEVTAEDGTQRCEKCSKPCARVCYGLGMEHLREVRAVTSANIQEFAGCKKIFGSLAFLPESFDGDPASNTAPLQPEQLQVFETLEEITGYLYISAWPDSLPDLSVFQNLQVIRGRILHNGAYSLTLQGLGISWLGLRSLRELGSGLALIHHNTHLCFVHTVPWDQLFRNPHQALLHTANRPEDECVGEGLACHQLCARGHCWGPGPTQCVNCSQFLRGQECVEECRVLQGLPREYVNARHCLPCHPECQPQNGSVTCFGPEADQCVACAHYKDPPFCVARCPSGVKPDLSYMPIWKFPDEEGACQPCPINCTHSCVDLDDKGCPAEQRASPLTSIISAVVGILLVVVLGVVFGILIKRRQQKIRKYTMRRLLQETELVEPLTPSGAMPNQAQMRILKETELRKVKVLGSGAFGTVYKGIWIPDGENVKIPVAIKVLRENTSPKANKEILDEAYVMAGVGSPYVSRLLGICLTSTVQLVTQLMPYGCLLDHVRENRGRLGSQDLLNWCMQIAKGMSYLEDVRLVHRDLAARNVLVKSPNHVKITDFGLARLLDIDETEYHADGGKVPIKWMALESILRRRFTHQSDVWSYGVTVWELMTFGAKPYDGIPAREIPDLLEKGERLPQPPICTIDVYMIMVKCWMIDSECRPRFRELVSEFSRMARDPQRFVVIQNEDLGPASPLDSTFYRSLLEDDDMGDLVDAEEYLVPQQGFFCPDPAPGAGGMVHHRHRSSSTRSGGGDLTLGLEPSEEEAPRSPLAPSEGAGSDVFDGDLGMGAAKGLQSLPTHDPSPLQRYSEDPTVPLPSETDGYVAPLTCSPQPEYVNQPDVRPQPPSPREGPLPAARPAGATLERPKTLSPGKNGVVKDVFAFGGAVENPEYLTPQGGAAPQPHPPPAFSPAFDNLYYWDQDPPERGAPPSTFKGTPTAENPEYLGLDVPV
pKi: −log10 of the molar value.
READOUT LABEL: pKi

INPUT: Fill in the recorded pKi for this molecule, with Receptor tyrosine-protein kinase erbB-2 (Homo sapiens) as test system: CC(C)(C)Nc1c(Nc2ccnc(Nc3ccc(-c4ccncc4)cc3)n2)c(=O)c1=O
OUTPUT: < 5.85

----------
molecular target: Receptor tyrosine-protein kinase erbB-4 (Homo sapiens); experiment: Inhibition of recombinant ERBB4 after 1 hr by scintillation counter analysis in presence of gamma-[33P]ATP
pKi: −log10 of the molar value.
READOUT LABEL: pKi

INPUT: Which pKi is listed for CC(C)(C)Nc1c(Nc2ccnc(Nc3ccc(-c4ccncc4)cc3)n2)c(=O)c1=O ?
OUTPUT: < 5.43

----------
target: Mitogen-activated protein kinase 1 (Homo sapiens); test: Inhibition of recombinant ERK2 after 1 hr by scintillation counter analysis in presence of gamma-[33P]ATP
READOUT LABEL: pKi
// scale note: pKi = -log10(conc_M); give the bare number

INPUT: Give recorded pKi with Mitogen-activated protein kinase 1 (Homo sapiens) for the following compound: CC(C)(C)Nc1c(Nc2ccnc(Nc3ccc(-c4ccncc4)cc3)n2)c(=O)c1=O
OUTPUT: 5.14

----------
Biological target: 3-phosphoinositide-dependent protein kinase 1 (Homo sapiens)
Sequence (O15530 whole entry): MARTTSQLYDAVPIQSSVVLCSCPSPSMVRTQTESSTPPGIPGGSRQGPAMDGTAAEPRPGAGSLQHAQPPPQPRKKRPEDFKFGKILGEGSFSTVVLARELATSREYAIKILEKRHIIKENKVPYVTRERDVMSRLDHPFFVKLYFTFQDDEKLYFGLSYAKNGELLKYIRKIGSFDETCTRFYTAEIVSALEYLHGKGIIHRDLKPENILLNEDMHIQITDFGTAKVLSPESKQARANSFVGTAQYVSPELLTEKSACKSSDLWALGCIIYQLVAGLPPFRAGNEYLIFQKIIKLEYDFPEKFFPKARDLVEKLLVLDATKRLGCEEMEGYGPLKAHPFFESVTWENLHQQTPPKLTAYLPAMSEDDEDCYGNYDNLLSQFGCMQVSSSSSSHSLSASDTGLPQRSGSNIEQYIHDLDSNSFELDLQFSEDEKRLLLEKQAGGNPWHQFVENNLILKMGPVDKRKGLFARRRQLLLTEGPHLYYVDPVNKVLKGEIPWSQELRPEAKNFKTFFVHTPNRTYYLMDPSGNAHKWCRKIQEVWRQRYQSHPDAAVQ
Experiment: Inhibition of recombinant PDK1 after 1 hr by scintillation counter analysis in presence of gamma-[33P]ATP
READOUT LABEL: pKi
# pKi = -log10(concentration in molar units)

INPUT: What measured pKi goes with CC(C)(C)Nc1c(Nc2ccnc(Nc3ccc(-c4ccncc4)cc3)n2)c(=O)c1=O ?
OUTPUT: 7.15

----------
molecular target: Serine/threonine-protein kinase Nek2 (Homo sapiens, UniProt P51955); experiment: Inhibition of recombinant NEK2 after 1 hr by scintillation counter analysis in presence of gamma-[33P]ATP
pKi: −log10 of the molar value.
READOUT LABEL: pKi

INPUT: Request the reported pKi associated with CC(C)(C)Nc1c(Nc2ccnc(Nc3ccc(-c4ccncc4)cc3)n2)c(=O)c1=O
OUTPUT: < 5.04

----------
biological target: Serine/threonine-protein kinase PLK1 (Homo sapiens); test: Inhibition of recombinant GST-tagged PLK1 using biotin-ahx-AKMETTFYDDALNASFLPSEKKK-amide as substrate after 30 mins by scintillation counting analysis in presence of gamma-[33P]ATP
Sequence (P53350 whole entry): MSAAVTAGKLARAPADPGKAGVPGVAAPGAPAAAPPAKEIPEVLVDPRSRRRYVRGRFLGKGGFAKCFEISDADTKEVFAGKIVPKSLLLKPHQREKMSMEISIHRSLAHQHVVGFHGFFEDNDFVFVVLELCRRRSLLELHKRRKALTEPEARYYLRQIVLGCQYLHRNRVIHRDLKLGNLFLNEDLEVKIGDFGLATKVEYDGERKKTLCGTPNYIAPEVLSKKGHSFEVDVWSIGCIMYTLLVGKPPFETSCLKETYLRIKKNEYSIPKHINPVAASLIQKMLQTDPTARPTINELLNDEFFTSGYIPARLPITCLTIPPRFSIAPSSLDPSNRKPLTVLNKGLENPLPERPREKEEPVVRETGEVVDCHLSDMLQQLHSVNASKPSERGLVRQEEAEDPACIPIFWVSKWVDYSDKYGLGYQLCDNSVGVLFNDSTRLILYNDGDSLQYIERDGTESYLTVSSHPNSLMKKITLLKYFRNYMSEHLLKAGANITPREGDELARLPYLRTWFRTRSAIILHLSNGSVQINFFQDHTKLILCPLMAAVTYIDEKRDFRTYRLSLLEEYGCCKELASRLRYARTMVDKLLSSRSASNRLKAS
Binary label based on Ki with cut-off 0.2 µM: below gives true (1), not below gives false (0).

INPUT: Lab note: confirm whether the reported Ki for this molecule is below 0.2 µM, equality not counting. molecule: C[C@@H](Nc1c(Nc2ccnc(Nc3ccc(Oc4ccccc4)cc3)n2)c(=O)c1=O)C(C)(C)C
OUTPUT: false (0)

INPUT: Ki under 0.2 µM? Item: C[C@@H](Nc1c(Nc2ccccc2)c(=O)c1=O)C(C)(C)C
OUTPUT: false (0)

INPUT: Quick check: Ki of C[C@@H](Nc1c(Nc2ccnc(Nc3ccc(-c4ccccc4)cc3)n2)c(=O)c1=O)C(C)(C)C under 0.2 µM?
OUTPUT: true (1)

----------
molecular target: Insulin-like growth factor 1 receptor (Homo sapiens, UniProt P08069); assay: Inhibition of recombinant IGF1R after 1 hr by scintillation counter analysis in presence of gamma-[33P]ATP
Sequence (P08069 31-736 limits assumed): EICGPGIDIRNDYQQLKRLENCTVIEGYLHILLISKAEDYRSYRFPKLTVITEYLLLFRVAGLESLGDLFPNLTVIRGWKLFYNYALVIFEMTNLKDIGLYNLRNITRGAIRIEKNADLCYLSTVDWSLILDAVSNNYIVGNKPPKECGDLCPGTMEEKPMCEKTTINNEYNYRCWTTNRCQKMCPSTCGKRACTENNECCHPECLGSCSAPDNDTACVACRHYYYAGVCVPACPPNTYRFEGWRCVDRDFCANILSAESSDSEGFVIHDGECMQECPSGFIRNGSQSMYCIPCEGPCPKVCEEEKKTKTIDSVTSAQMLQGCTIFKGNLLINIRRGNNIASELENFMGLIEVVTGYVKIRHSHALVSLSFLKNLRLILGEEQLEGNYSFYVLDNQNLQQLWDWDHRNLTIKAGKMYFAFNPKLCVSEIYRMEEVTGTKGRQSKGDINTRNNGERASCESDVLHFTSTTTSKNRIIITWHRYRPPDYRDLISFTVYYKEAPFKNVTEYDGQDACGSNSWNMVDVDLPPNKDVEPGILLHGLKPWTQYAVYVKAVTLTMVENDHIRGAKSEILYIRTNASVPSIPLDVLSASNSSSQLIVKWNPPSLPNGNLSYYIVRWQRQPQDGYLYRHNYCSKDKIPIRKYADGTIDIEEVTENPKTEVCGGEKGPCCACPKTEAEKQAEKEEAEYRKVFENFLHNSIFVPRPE
Sequence (P08069 741-1367 limits assumed): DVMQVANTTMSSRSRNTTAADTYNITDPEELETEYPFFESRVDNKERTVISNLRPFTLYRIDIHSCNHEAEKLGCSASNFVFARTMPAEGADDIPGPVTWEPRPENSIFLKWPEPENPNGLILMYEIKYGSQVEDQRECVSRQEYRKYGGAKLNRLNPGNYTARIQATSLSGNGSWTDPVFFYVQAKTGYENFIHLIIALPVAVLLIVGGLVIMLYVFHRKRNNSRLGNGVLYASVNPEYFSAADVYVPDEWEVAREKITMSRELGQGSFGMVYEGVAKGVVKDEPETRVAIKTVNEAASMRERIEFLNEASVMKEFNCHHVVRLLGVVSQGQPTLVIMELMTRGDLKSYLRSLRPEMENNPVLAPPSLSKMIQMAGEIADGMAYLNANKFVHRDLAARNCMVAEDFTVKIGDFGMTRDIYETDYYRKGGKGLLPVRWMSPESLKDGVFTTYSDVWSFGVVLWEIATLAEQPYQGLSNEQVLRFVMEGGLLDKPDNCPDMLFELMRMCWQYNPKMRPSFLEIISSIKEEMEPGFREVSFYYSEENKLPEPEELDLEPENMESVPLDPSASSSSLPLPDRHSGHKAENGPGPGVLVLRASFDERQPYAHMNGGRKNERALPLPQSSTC
READOUT LABEL: Ki

INPUT: I am curious: what Ki value has been reported for CC(C)(C)Nc1c(Nc2ccnc(Nc3ccc(-c4ccncc4)cc3)n2)c(=O)c1=O ?
OUTPUT: > 1800 nM

----------
molecular target: UniProtKB P08581; experiment: Inhibition of recombinant c-MET after 1 hr by scintillation counter analysis in presence of gamma-[33P]ATP
READOUT LABEL: Ki (nM)
Give the value in nM but do not write nM after it.

INPUT: Reported Ki for UniProtKB P08581, given CC(C)(C)Nc1c(Nc2ccnc(Nc3ccc(-c4ccncc4)cc3)n2)c(=O)c1=O ?
OUTPUT: 1600

----------
target: Serine/threonine-protein kinase PLK3 (Homo sapiens, UniProt Q9H4B4); assay: Inhibition of recombinant PLK3 after 1 hr by scintillation counter analysis in presence of gamma-[33P]ATP
READOUT LABEL: Ki
Quick note: unit goes after the number.

INPUT: Would you kindly share the measured Ki for CC(C)(C)Nc1c(Nc2ccnc(Nc3ccc(-c4ccncc4)cc3)n2)c(=O)c1=O ?
OUTPUT: 2 nM

----------
biological target: Serine/threonine-protein kinase pim-1 (Homo sapiens); assay: Inhibition of recombinant PIM1 after 1 hr by scintillation counter analysis in presence of gamma-[33P]ATP
Sequence (P11309 whole entry): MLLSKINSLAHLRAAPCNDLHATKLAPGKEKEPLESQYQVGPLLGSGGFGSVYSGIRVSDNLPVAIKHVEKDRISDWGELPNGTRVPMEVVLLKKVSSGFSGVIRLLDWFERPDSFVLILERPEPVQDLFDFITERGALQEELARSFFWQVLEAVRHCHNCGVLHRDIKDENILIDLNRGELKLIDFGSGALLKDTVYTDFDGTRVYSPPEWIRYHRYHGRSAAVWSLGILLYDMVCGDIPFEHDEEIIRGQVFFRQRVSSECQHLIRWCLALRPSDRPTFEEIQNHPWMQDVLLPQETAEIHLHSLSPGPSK
READOUT LABEL: Ki

INPUT: Query (compound): CC(C)(C)Nc1c(Nc2ccnc(Nc3ccc(-c4ccncc4)cc3)n2)c(=O)c1=O ; field requested: Ki
OUTPUT: 1600 nM

----------
biological target: BDNF/NT-3 growth factors receptor (Homo sapiens, UniProt Q16620); experiment: Inhibition of recombinant TRKB after 1 hr by scintillation counter analysis in presence of gamma-[33P]ATP
Sequence (Q16620 whole entry): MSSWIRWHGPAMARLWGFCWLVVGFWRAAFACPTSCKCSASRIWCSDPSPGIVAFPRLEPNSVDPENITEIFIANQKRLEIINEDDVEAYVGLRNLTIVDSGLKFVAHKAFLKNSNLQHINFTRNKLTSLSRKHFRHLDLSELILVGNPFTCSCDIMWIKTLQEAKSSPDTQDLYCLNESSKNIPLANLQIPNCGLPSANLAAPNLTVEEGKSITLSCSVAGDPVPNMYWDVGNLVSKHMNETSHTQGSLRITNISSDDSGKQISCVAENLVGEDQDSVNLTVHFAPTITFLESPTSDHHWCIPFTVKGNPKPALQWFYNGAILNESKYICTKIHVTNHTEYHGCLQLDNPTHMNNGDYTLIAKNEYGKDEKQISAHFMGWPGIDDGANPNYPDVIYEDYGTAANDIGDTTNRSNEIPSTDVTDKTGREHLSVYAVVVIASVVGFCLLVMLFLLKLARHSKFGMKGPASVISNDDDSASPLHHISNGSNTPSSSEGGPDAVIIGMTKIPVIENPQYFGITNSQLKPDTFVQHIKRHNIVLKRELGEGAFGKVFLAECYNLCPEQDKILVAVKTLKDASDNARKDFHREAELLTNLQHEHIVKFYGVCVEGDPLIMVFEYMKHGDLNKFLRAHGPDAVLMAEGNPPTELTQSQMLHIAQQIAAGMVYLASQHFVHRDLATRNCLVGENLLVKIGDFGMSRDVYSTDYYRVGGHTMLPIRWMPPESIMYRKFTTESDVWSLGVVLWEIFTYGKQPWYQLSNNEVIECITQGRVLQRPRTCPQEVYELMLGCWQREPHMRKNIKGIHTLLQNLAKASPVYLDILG
pKi: −log10 of the molar value.
READOUT LABEL: pKi

INPUT: Fill in the blank: the reported pKi of CC(C)(C)Nc1c(Nc2ccnc(Nc3ccc(-c4ccncc4)cc3)n2)c(=O)c1=O is ____.
OUTPUT: < 5.35

----------
target: 5'-AMP-activated protein kinase subunit beta-1 (Homo sapiens, UniProt Q9Y478); experiment: Inhibition of recombinant AMPK after 1 hr by scintillation counter analysis in presence of gamma-[33P]ATP
READOUT LABEL: Ki

INPUT: Field request: Ki | item: CC(C)(C)Nc1c(Nc2ccnc(Nc3ccc(-c4ccncc4)cc3)n2)c(=O)c1=O
OUTPUT: 333 nM
